Experiment: qHTS assay for identifying genotoxic compounds that show differential cytotoxicity against isogenic chicken DT40 cell lines with known DNA damage response pathways - Rad54/Ku70 mutant cell line (AID 743015); also: nearly all actives have a fitted effect of over 60% in size
Conditions: DT40 Rad54/Ku70 mutant viability, CellTiter-Glo, 40 h; series mostly up to 66.8 µM
Results filed as inconclusive are left out. Calls of active or inactive are those of the source. Calls follow the shape of the dose curve; as a rule, active = well fitted cell-killing curve with a large enough effect in the repeat runs; inconclusive = weak or mixed curves; inactive = no such curve, though single readings can be large or run the other way.
Outcome codes: active, inactive

>  <compound>
CC(Br)C(=O)O (centres undefined)

>  <answer-label>
inactive

$$$$
>  <compound>
CC(C)(C)OOC(=O)c1ccccc1

>  <answer-label>
inactive

$$$$
>  <compound>
CCOC(=O)c1ccccc1C(=O)OCC

>  <answer-label>
inactive

$$$$
>  <compound>
Cc1ccc(N)cc1N

>  <answer-label>
active

$$$$
>  <compound>
OC(O)C(Cl)(Cl)Cl

>  <answer-label>
inactive

$$$$
>  <compound>
ClCCBr

>  <answer-label>
inactive

$$$$
>  <compound>
c1ccc2c(c1)Oc1ccccc1O2

>  <answer-label>
inactive

$$$$
>  <compound>
Oc1ccccc1Cl

>  <answer-label>
inactive

$$$$
>  <compound>
O=c1[nH]c2ccccc2c(=O)o1

>  <answer-label>
inactive

$$$$
>  <compound>
Clc1cccc(Cl)c1Cl

>  <answer-label>
inactive

$$$$
>  <compound>
CCC(C)(CC)c1cc(NC(=O)c2c(OC)cccc2OC)on1

>  <answer-label>
active

$$$$
>  <compound>
CC(C#N)CCC#N (centres undefined)

>  <answer-label>
inactive

$$$$
>  <compound>
CN(C)[C@@H]1C(=O)C(C(N)=O)=C(O)[C@@]2(O)C(=O)C3=C(O)c4c(O)cccc4[C@@](C)(O)[C@H]3C[C@@H]12

>  <answer-label>
inactive

$$$$
>  <compound>
CCCCOC(=O)c1ccccc1C(=O)OCCCC

>  <answer-label>
inactive

$$$$
>  <compound>
c1ccc(-c2ccccc2)cc1

>  <answer-label>
inactive

$$$$
>  <compound>
CC1C=[C-]C=C1.[C-]#[O+].[C-]#[O+].[C-]#[O+].[Mn]

>  <answer-label>
inactive

$$$$
>  <compound>
O=c1ccc(=O)[nH][nH]1

>  <answer-label>
inactive

$$$$
>  <compound>
CCOP(=S)(OCC)SCCSCC

>  <answer-label>
inactive

$$$$
>  <compound>
C#CC(C)(C)NC(=O)c1cc(Cl)cc(Cl)c1

>  <answer-label>
inactive

$$$$
>  <compound>
O=NN1CCCC1

>  <answer-label>
inactive

$$$$
>  <compound>
BrCCBr

>  <answer-label>
inactive

$$$$
>  <compound>
Cc1cc(Cl)ccc1O

>  <answer-label>
inactive

$$$$
>  <compound>
COC(=O)c1ccccc1C(=O)OC

>  <answer-label>
inactive

$$$$
>  <compound>
COC(=O)NS(=O)(=O)c1ccc(N)cc1

>  <answer-label>
inactive

$$$$
>  <compound>
CC(C)C#N

>  <answer-label>
inactive

$$$$
>  <compound>
CCCCCCCCCl

>  <answer-label>
inactive

$$$$
>  <compound>
CCC[N+](=O)[O-]

>  <answer-label>
inactive

$$$$
>  <compound>
CCN(CC)c1ccccc1

>  <answer-label>
inactive

$$$$
>  <compound>
Clc1ccccc1Cl

>  <answer-label>
inactive

$$$$
>  <compound>
C=C(C)CCl

>  <answer-label>
inactive

$$$$
>  <compound>
CC(C)N1C(=O)c2ccccc2NS1(=O)=O

>  <answer-label>
inactive

$$$$
>  <compound>
Nc1ccc(Cc2ccc(N)cc2)cc1

>  <answer-label>
inactive

$$$$
>  <compound>
Nc1ccc(Br)cc1

>  <answer-label>
inactive

$$$$
>  <compound>
ClCc1cccnc1

>  <answer-label>
inactive

$$$$

====

Experiment: qHTS assay to identify small molecule antagonists of the thyroid receptor (TR) signaling pathway - cell viability counter screen (AID 743064); also: nearly all actives have a fitted effect of over 50% in size
Details: GH3.TRE-Luc viability, CellTiter-Fluor, 24 h; series mostly up to 70.3 µM
Results filed as inconclusive are left out. Activity calls are given as the source filed them. Calls come from the whole dose curve; as a rule, active = well fitted cell-killing curve with a large enough effect in the repeat runs; inconclusive = weak or mixed curves, or effect the other way; inactive = no such curve, though single readings can be large or run the other way.

>  <molecule>
CC(C)(C)OOC(=O)c1ccccc1

>  <activity change, negative = cytotoxic>
inactive

$$$$
>  <molecule>
O=c1n(Cl)c(=O)n(Cl)c(=O)n1Cl

>  <activity change, negative = cytotoxic>
inactive

$$$$
>  <molecule>
C#CC(C)(C)NC(=O)c1cc(Cl)cc(Cl)c1

>  <activity change, negative = cytotoxic>
inactive

$$$$
>  <molecule>
C1CN2CCN1CC2

>  <activity change, negative = cytotoxic>
inactive

$$$$
>  <molecule>
O=C1CCCN1

>  <activity change, negative = cytotoxic>
inactive

$$$$
>  <molecule>
CCOP(=S)(OCC)SCCSCC

>  <activity change, negative = cytotoxic>
inactive

$$$$
>  <molecule>
Clc1ccccc1Cl

>  <activity change, negative = cytotoxic>
inactive

$$$$
>  <molecule>
OC(O)C(Cl)(Cl)Cl

>  <activity change, negative = cytotoxic>
inactive

$$$$
>  <molecule>
Cc1ccc([N+](=O)[O-])cc1C

>  <activity change, negative = cytotoxic>
inactive

$$$$
>  <molecule>
CC(C)OC(=O)Nc1cccc(Cl)c1

>  <activity change, negative = cytotoxic>
inactive

$$$$
>  <molecule>
CCC[N+](=O)[O-]

>  <activity change, negative = cytotoxic>
inactive

$$$$
>  <molecule>
COP(N)(=O)SC (configuration not stated)

>  <activity change, negative = cytotoxic>
inactive

$$$$
>  <molecule>
CN(N=O)c1ccccc1

>  <activity change, negative = cytotoxic>
inactive

$$$$
>  <molecule>
O=[N+]([O-])c1ccc([As](=O)(O)O)cc1

>  <activity change, negative = cytotoxic>
inactive

$$$$
>  <molecule>
COc1ccc2c3c1O[C@H]1[C@@H](O)C=C[C@H]4[C@@H](C2)N(C)CC[C@@]341

>  <activity change, negative = cytotoxic>
inactive

$$$$
>  <molecule>
O=c1ccc(=O)[nH][nH]1

>  <activity change, negative = cytotoxic>
inactive

$$$$
>  <molecule>
CCCCN(CC)C(=O)SCCC

>  <activity change, negative = cytotoxic>
inactive

$$$$
>  <molecule>
NCC(O)c1ccc(O)cc1 (configuration not stated)

>  <activity change, negative = cytotoxic>
inactive

$$$$
>  <molecule>
CC(NC(C)(C)C)C(=O)c1cccc(Cl)c1 (configuration not stated)

>  <activity change, negative = cytotoxic>
inactive

$$$$
>  <molecule>
c1cc2c3c(cccc3c1)CC2

>  <activity change, negative = cytotoxic>
inactive

$$$$
>  <molecule>
O=C(NC(=O)c1c(F)cccc1F)Nc1cc(Cl)c(OC(F)(F)C(F)C(F)(F)F)cc1Cl (configuration not stated)

>  <activity change, negative = cytotoxic>
inactive

$$$$
>  <molecule>
Cc1ccc(N)cc1Cl

>  <activity change, negative = cytotoxic>
inactive

$$$$
>  <molecule>
O=Cc1cccc(Oc2ccccc2)c1

>  <activity change, negative = cytotoxic>
inactive

$$$$
>  <molecule>
CC(C)(Cl)Cl

>  <activity change, negative = cytotoxic>
inactive

$$$$
>  <molecule>
O=c1[nH]c(=O)[nH]c(=O)[nH]1

>  <activity change, negative = cytotoxic>
inactive

$$$$
>  <molecule>
CN(C)CCO

>  <activity change, negative = cytotoxic>
inactive

$$$$
>  <molecule>
Nc1c(Cl)c(Cl)nc(C(=O)O)c1Cl

>  <activity change, negative = cytotoxic>
inactive

$$$$
>  <molecule>
CCNc1nc(NC(C)(C)C)nc(SC)n1

>  <activity change, negative = cytotoxic>
inactive

$$$$
>  <molecule>
CC(=O)C=C(C)C

>  <activity change, negative = cytotoxic>
inactive

$$$$
>  <molecule>
CCC12COCN1COC2

>  <activity change, negative = cytotoxic>
inactive

$$$$
>  <molecule>
CCCC1COC(Cn2cncn2)(c2ccc(Cl)cc2Cl)O1 (configuration not stated)

>  <activity change, negative = cytotoxic>
inactive

$$$$
>  <molecule>
C#CCN(C)[C@H](C)Cc1ccccc1

>  <activity change, negative = cytotoxic>
inactive

$$$$

====

Assay: qHTS assay to identify small molecule agonists of the RXR signaling pathway - cell viability counter screen (AID 1159529);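 also: HEK 293T cells carrying an RXR-alpha UAS beta-lactamase reporter; nearly all actives have a fitted effect of over 50% in size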
Conditions: RXR-alpha-bla HEK293T viability, CellTiter-Glo, 16 h; series mostly up to 76.8 µM
Inconclusive results are not listed. Activity calls are given as the source filed them. Calls follow the shape of the dose curve; as a rule, active = well fitted cell-killing curve with a large enough effect in the repeat runs; inconclusive = weak or mixed curves, or effect the other way; inactive = no such curve, though single readings can be large or run the other way.
property: outcome

>  <compound>
C#CC(C)(C)NC(=O)c1cc(Cl)cc(Cl)c1

>  <test-value>
inactive

$$$$
>  <compound>
CCCCCOC(=O)c1ccccc1C(=O)OCCCCC

>  <test-value>
inactive

$$$$
>  <compound>
Oc1ccccc1Cl

>  <test-value>
inactive

$$$$
>  <compound>
Nc1c(Cl)c(Cl)nc(C(=O)O)c1Cl

>  <test-value>
inactive

$$$$
>  <compound>
COC(=O)c1ccccc1N

>  <test-value>
inactive

$$$$
>  <compound>
CCN(CC)c1ccccc1

>  <test-value>
inactive

$$$$
>  <compound>
Cc1ccc(N)cc1Cl

>  <test-value>
inactive

$$$$
>  <compound>
Clc1ccccc1Cl

>  <test-value>
inactive

$$$$
>  <compound>
OC(O)C(Cl)(Cl)Cl

>  <test-value>
inactive

$$$$
>  <compound>
CCCCOC(=O)c1ccccc1C(=O)OCCCC

>  <test-value>
inactive

$$$$
>  <compound>
CC(C)=C[C@@H]1[C@@H](C(=O)OCc2coc(Cc3ccccc3)c2)C1(C)C

>  <test-value>
inactive

$$$$
>  <compound>
CC(C)OC(=O)Nc1ccccc1

>  <test-value>
inactive

$$$$
>  <compound>
Cc1cccc([N+](=O)[O-])c1

>  <test-value>
inactive

$$$$
>  <compound>
CC(C)(C)C(O)(CCc1ccc(Cl)cc1)Cn1cncn1 (stereo not drawn)

>  <test-value>
inactive

$$$$
>  <compound>
O=Cc1cccc(Oc2ccccc2)c1

>  <test-value>
inactive

$$$$
>  <compound>
Cc1cc(Cl)ccc1O

>  <test-value>
inactive

$$$$
>  <compound>
c1ccc2c(c1)Oc1ccccc1O2

>  <test-value>
inactive

$$$$
>  <compound>
O=[N+]([O-])c1ccccc1

>  <test-value>
inactive

$$$$
>  <compound>
Clc1ccc(Cl)cc1

>  <test-value>
inactive

$$$$
>  <compound>
Cc1ccccc1O

>  <test-value>
inactive

$$$$
>  <compound>
CNC(=O)Oc1ccccc1OC(C)C

>  <test-value>
inactive

$$$$
>  <compound>
C[C@]12CC[C@H]3[C@@H](CC[C@@]45O[C@@H]4C(O)=C(C#N)C[C@]35C)[C@@H]1CC[C@@H]2O

>  <test-value>
inactive

$$$$
>  <compound>
CC1C=[C-]C=C1.[C-]#[O+].[C-]#[O+].[C-]#[O+].[Mn]

>  <test-value>
inactive

$$$$
>  <compound>
Nc1ccc(Cc2ccc(N)cc2)cc1

>  <test-value>
inactive

$$$$
>  <compound>
CCc1cccc(C)c1N(C(=O)CCl)C(C)COC (stereo not drawn)

>  <test-value>
inactive

$$$$
>  <compound>
ClCc1cccnc1

>  <test-value>
inactive

$$$$
>  <compound>
CC(Br)C(=O)O (stereo not drawn)

>  <test-value>
inactive

$$$$
>  <compound>
CC(C)OC(=O)Nc1cccc(Cl)c1

>  <test-value>
inactive

$$$$
>  <compound>
C#CCN(C)[C@H](C)Cc1ccccc1

>  <test-value>
inactive

$$$$
>  <compound>
O=c1[nH]c2ccccc2c(=O)o1

>  <test-value>
inactive

$$$$
>  <compound>
CC(C)(C)OOC(C)(C)C

>  <test-value>
inactive

$$$$
>  <compound>
CN(C)CCO

>  <test-value>
inactive

$$$$
>  <compound>
CN(C)N=O

>  <test-value>
inactive

$$$$
>  <compound>
CCC[CH2][Sn]([Cl])([Cl])[Cl]

>  <test-value>
inactive

$$$$
>  <compound>
CN(C)[C@@H]1C(=O)C(C(N)=O)=C(O)[C@@]2(O)C(=O)C3=C(O)c4c(O)cccc4[C@@](C)(O)[C@H]3C[C@@H]12

>  <test-value>
inactive

$$$$
>  <compound>
ClCCBr

>  <test-value>
inactive

$$$$
>  <compound>
OCCN(CCO)CCO

>  <test-value>
inactive

$$$$
>  <compound>
O=C(NC(=O)c1c(F)cccc1F)Nc1cc(Cl)c(OC(F)(F)C(F)C(F)(F)F)cc1Cl (stereo not drawn)

>  <test-value>
inactive

$$$$
>  <compound>
CCCN(CCC)c1c([N+](=O)[O-])cc(C(F)(F)F)cc1[N+](=O)[O-]

>  <test-value>
inactive

$$$$
>  <compound>
O=NN1CCCCCCC1

>  <test-value>
inactive

$$$$
>  <compound>
CC(Oc1ccc(Cl)cc1Cl)C(=O)O (stereo not drawn)

>  <test-value>
inactive

$$$$
>  <compound>
O=C1CCCN1

>  <test-value>
inactive

$$$$
>  <compound>
[O-][Cl+2]([O-])O

>  <test-value>
inactive

$$$$
